experiment: NCI Yeast Anticancer Drug Screen. Data for the bub3 strain (AID 167); conditions: S. cerevisiae bub3 mutant strain, at 3.7 µM
Compounds without any hit were thinned out: in the full panel of roughly 79,000, 15% have a hit. Activity calls are given as the source filed them. Rule as the data show it: active = growth inhibition above about 70%; inactive = the rest.
Respond using exactly one of the listed classes: active, inactive

{"Compound": "Nc1ccc2ncc(Nc3ccc(Cl)c(Cl)c3)nc2c1", "Category Label": "inactive"}
{"Compound": "O=C(N/N=C/c1ccc2c(c1)CCC2)c1ccccc1[N+](=O)[O-]", "Category Label": "inactive"}
{"Compound": "O=C(CCC(=O)c1ccc(O)cc1)Oc1ccc(O)cc1", "Category Label": "inactive"}
{"Compound": "COc1ccc(/C=C2\\S/C(=N/Nc3nc(-c4ccccc4)cs3)NC2=O)cc1OC", "Category Label": "active"}
{"Compound": "O=c1[nH]c(=O)n(CCCO)cc1F", "Category Label": "inactive"}

-- ask Please state the recorded outcome for this compound: Cc1ccc2oc(-c3cccc(N)c3)nc2c1
-- reply inactive

-- ask Please state the recorded outcome for this compound: Cc1nc2ccc(NCCN(C)C)c3c(=O)c4ccccc4n1c23
-- reply inactive

-- ask Please state the recorded outcome for this compound: Nc1ccc2cc(Br)c3ccccc3c2c1
-- reply inactive

-- ask Please state the recorded outcome for this compound: CCOC(=O)/C=C1\CCCn2c1ncc(C(=O)OCC)c2=O
-- reply inactive

-- ask Please state the recorded outcome for this compound: COc1ccc(/C=C2\CCc3ccccc3C2=O)cc1OC
-- reply inactive

-- ask Please state the recorded outcome for this compound: O=Cn1c2ccccc2c2ccccc21
-- reply inactive

-- ask Please state the recorded outcome for this compound: Oc1ccc(Cc2nccc3cc(O)c(O)cc23)cc1O
-- reply inactive

-- ask Please state the recorded outcome for this compound: COc1cc(C(C)C(C(=O)O)C(=O)C(=O)O)cc(OC)c1OC (stereo not drawn)
-- reply inactive
